Molecular target: human αvβ3 receptor (Homo sapiens, UniProt P05106+P06756)
Experiment: Displacement of the binding Vitronectin/Vitronectin receptor (αvβ3), competition test
Conditions: human vitronectin coated plates, 3 hours at ambient temperature, read-out: Competition test Vn/VR (αvβ3) binding IC50 en
value-type: IC50 (µM)

For orientation, consider the following solved cases.
• COc1c(OCCC(NS(=O)(=O)c2cccc3cccnc23)C(=O)O)cc2c(c1OC)C1=C(CCC1)C(=NNC1=NCCN1)CC2 (racemic) = 0.015
• COc1c(OCCC(NC(=O)OCc2ccccc2)C(=O)O)cc2c(c1OC)C1=C(CCC1)C(=NNC1=NCCN1)CC2 (racemic) = 0.03
• COc1c(OCCC(NC(=O)OCc2ccccc2)C(=O)O)cc2c(c1OC)C1=C(CCC1)C(=NNC1=NCCCCN1)CC2 (racemic) = 0.055

[P] O=C(O)CCCOc1ccc2c(c1)C1=C(CCC1)C(=NNC1=NCCN1)CC2
[Q] COc1c(OCCC(NC(=O)OCc2ccccc2)C(=O)O)cc2c(c1OC)C1=C(CCC1)C(=NNC1=NCCCN1)CC2 (racemic)
[R] COc1c(OCCCC(=O)O)cc2c(c1OC)C1=C(CCC1)C(=NNC1=NCCCN1)CC2
List these items ordered by IC50, big to small. Hello, could you send the labels back in the order asked? Thank you.
R, P, Q
(R: 0.35 µM, P: 0.079 µM, Q: 0.006 µM)
